Quick note: these are Kif numbers for system: UniProt P04150
Sequence (P04150 whole entry): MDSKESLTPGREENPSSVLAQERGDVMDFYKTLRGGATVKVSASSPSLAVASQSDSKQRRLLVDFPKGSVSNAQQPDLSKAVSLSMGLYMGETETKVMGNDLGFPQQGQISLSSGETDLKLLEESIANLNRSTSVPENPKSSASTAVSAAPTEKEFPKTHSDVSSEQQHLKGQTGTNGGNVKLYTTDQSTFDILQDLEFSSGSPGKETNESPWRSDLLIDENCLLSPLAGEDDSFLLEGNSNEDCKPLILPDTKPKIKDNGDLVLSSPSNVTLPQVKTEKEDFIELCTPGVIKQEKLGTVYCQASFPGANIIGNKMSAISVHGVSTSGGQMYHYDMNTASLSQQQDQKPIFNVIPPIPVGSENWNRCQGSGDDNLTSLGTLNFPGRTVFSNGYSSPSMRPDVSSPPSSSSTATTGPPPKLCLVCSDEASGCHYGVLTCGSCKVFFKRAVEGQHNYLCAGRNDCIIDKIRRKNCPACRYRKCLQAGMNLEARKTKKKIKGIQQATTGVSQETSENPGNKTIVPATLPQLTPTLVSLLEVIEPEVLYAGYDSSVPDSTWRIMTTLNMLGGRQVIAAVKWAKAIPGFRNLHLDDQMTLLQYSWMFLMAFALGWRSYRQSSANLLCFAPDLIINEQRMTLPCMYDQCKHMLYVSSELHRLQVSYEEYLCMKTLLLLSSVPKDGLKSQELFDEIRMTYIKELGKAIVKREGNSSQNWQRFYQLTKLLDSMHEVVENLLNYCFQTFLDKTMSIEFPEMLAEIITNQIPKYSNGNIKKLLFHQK
experimentalReadout: Kif

O=C1C=C2CCc3cc(O)ccc3C2(Cc2ccccc2)CC1 (single isomer, unassigned; form 2): > 1000 nM
COc1ccc2c(c1)CCC1=CC(=O)CCC12Cc1ccccc1 (single isomer, unassigned; form 2): > 1000 nM
COc1ccc2c(c1)CCC1=CC(=O)CCC12Cc1ccccc1 (single isomer, unassigned; form 1): > 1000 nM
